- System: SARS-CoV-2
- Method Description: Cytopathic effect (CPE) suppression effect confirmation test using HEK293T/ACE2-TMPRSS2 cells
- Format: cell-based
- Applied Conditions: Severe acute respiratory syndrome coronavirus 2, HEK-293T, 72 h, read-out: EC50 (50% SARS-CoV-2 infected cell death inhibitory concentration), class, HEK293T/ACE2-TMPRSS2 cells, CPE suppression, CellTiter-Glo 2.0 after 3 days culture
Endpoint: EC50

compound=N#CCn1c(N2CC3(CCOC3)C2)c(Cc2cc(F)c(F)c(F)c2)c(=O)n(-c2cnc3cccnn23)c1=O target_or_test_system=SARS-CoV-2 endpoint=EC50 result="100 to 1000 nM"
compound="Cc1cncc(-n2c(=O)c(Cc3cc(F)c(F)c(F)c3)c(N3CCC(C(N)=O)C3)n(CC#N)c2=O)c1 (racemic)" target_or_test_system=SARS-CoV-2 endpoint=EC50 result="< 100 nM"
compound=Cc1cncc(-n2c(=O)c(-c3ccc(F)c(Cl)c3)c(N3CCC(C(F)(F)F)CC3)n(CC#N)c2=O)n1 target_or_test_system=SARS-CoV-2 endpoint=EC50 result="< 100 nM"
compound=Cc1cncc(-n2c(=O)c(-c3cccc4ccccc34)c(N3Cc4cn[nH]c4C3)n(CC#N)c2=O)c1 target_or_test_system=SARS-CoV-2 endpoint=EC50 result="< 100 nM"

Q: Form field: reported EC50 of N#CCn1c(N2CCC3(CC2)CNC(=O)O3)c(-c2ccc(F)c(Cl)c2)c(=O)n(-c2cncc(Cl)c2)c1=O
Ans: 100 to 1000 nM
